Reported values of degree of damage to the plants, HORVW 5d for individual entries
# Test system: Hordeum vulgare (winter barley)
# measurementDescription: Post-emergence test/greenhouse, damage to winter barley (HORVW)
# Type: in vivo
# testConditions: 5d, 60 g of ai/ha, 0.5% Renex 36

- compound: "CCS(=O)(=O)N(C(=O)CC(C)c1ccccc1)c1cc(-n2ncc(=O)n(C)c2=O)c(F)cc1C#N (centres unmarked)"
  degree of damage to the plants, HORVW 5d / %: 30
- compound: "CCS(=O)(=O)N(C(=O)CCc1ccc(F)c(F)c1)c1cc(-n2ncc(=O)n(C)c2=O)c(F)cc1C#N"
  degree of damage to the plants, HORVW 5d / %: 30
- compound: "CCS(=O)(=O)N(C(=O)CCc1ccc(Cl)c(Cl)c1)c1cc(-n2ncc(=O)n(C)c2=O)c(F)cc1C#N"
  degree of damage to the plants, HORVW 5d / %: 30
- compound: "CCS(=O)(=O)N(C(=O)CCc1cccc(Cl)c1)c1cc(-n2c(=O)cc(C(F)(F)F)n(C)c2=O)c(F)cc1C#N"
  degree of damage to the plants, HORVW 5d / %: 40
- compound: "CCS(=O)(=O)N(C(=O)CCc1ccc(Cl)c(Cl)c1)c1cc(-n2c(=O)cc(C(F)(F)F)n(C)c2=O)c(F)cc1C#N"
  degree of damage to the plants, HORVW 5d / %: 60
- compound: "Cn1c(C(F)(F)F)cc(=O)n(-c2cc(N(C(=O)C=Cc3ccccc3Cl)S(C)(=O)=O)c(C#N)cc2F)c1=O"
  degree of damage to the plants, HORVW 5d / %: 40
- compound: "CCS(=O)(=O)N(C(=O)C=Cc1ccccc1Cl)c1cc(-n2c(=O)cc(C(F)(F)F)n(C)c2=O)c(F)cc1C#N"
  degree of damage to the plants, HORVW 5d / %: 50
- compound: "CCS(=O)(=O)N(C(=O)CCc1cccc(OC)c1)c1cc(-n2c(=O)cc(C(F)(F)F)n(C)c2=O)c(F)cc1C#N"
  degree of damage to the plants, HORVW 5d / %: 70

---

# System: Hordeum vulgare (winter barley)
# measurementDescription: Post-emergence test/greenhouse, damage to winter barley (HORVW)
# Assay type: in vivo
# testConditions: 5d, 15 g of ai/ha, 0.5% Renex 36
# degree of damage to the plants, HORVW 5d values compiled below

- compound: "CCS(=O)(=O)N(C(=O)CCc1cccc(OC)c1)c1cc(-n2ncc(=O)n(C)c2=O)c(F)cc1C#N [Ex. I-41]"
  degree of damage to the plants, HORVW 5d / %: 20
- compound: "CCS(=O)(=O)N(C(=O)CCc1cccc(OC)c1)c1cc(-n2c(=O)cc(C(F)(F)F)n(C)c2=O)c(F)cc1C#N [Ex. I-24]"
  degree of damage to the plants, HORVW 5d / %: 40
- compound: "CCS(=O)(=O)N(C(=O)C=Cc1ccccc1Cl)c1cc(-n2c(=O)cc(C(F)(F)F)n(C)c2=O)c(F)cc1C#N [Ex. I-31]"
  degree of damage to the plants, HORVW 5d / %: 30
- compound: "CCS(=O)(=O)N(C(=O)C(C)=Cc1ccccc1)c1cc(-n2c(=O)cc(C(F)(F)F)n(C)c2=O)c(F)cc1C#N [Ex. I-29]"
  degree of damage to the plants, HORVW 5d / %: 10
- compound: "CCS(=O)(=O)N(C(=O)CCc1ccc(F)c(F)c1)c1cc(-n2ncc(=O)n(C)c2=O)c(F)cc1C#N [Ex. I-42]"
  degree of damage to the plants, HORVW 5d / %: 15
